- Tested on: Acinetobacter baumanii T6474
- Experiment: Bacterial growth minimal inhibitory concentration (microdilution, cation-adjusted Mueller-Hinton Broth)
- Type: cell-based
- Setup conditions: Acinetobacter baumannii, multiply-resistant strain, in particular quinolone resistant
Measure: MIC

[[record]]
structure = "O=C1COc2ccc(N3C[C@H](CNC[C@@H]4CCN(c5nc6c(cc5F)c(=O)c(C(=O)O)cn6C5CC5)C4)OC3=O)nc2N1"
measure = "MIC"
result = "0.031 µg/mL"

[[record]]
structure = "O=C1COc2ccc(N3C[C@@H](CNC4CN(c5nc6c(cc5F)c(=O)c(C(=O)O)cn6CCO)C4)OC3=O)nc2N1"
measure = "MIC"
result = "4 µg/mL"

[[record]]
structure = "O=C1COc2ccc(N3C[C@@H](CNC4CCN(c5nc6c(cc5F)c(=O)c(C(=O)O)cn6C5CC5)CC4)OC3=O)nc2N1"
measure = "MIC"
result = "≤ 0.016 µg/mL"

[[record]]
structure = "Cn1cc(C(=O)O)c(=O)c2ccc(N3CC(NC[C@@H]4CN(c5ccc6c(n5)NC(=O)CO6)C(=O)O4)C3)nc21"
measure = "MIC"
result = "0.063 µg/mL"


###

- Tested on: Acinetobacter baumanii T6474
- Experiment: Bacterial growth minimal inhibitory concentration (microdilution, cation-adjusted Mueller-Hinton Broth)
- Format: cell-based
- Setup conditions: Acinetobacter baumannii, multiply-resistant strain, in particular quinolone resistant
Measure: MIC

[[record]]
molecule = "O=C1COc2ccc(N3C[C@H](CNC4CCN(c5nc6c(cc5F)c(=O)c5c(O)nsc5n6C5CC5)CC4)OC3=O)nc2N1"
result = "≤ 0.016 µg/mL"

[[record]]
molecule = "O=C1COc2ccc(N3C[C@H](CNC4CCN(c5nc6c(cc5F)c(=O)c(C(=O)O)cn6C5CC5)CC4)OC3=O)nc2N1"
result = "≤ 0.016 µg/mL"

[[record]]
molecule = "O=C(O)c1cn(C2CC2)c2cc(N3CCNCC3)c(F)cc2c1=O [Cipro, ciprofloxacin, reference compound]"
result = "> 32 µg/mL"

[[record]]
molecule = "Cn1cc(C(=O)O)c(=O)c2cc(F)c(N3CC(NC[C@@H]4CN(c5ccc6c(n5)NC(=O)CO6)C(=O)O4)C3)nc21"
result = "≤ 0.016 µg/mL"

